B1: FBXO34 (parent)
chain: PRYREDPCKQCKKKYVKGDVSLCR

Variants of: B1
assay overview: protein stability index of a GFP-peptide fusion (GPS, HEK-293T) (PSI 1-6); higher = more stable;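 note: lentivirally expressed fusions sorted by FACS into six bins by GFP to DsRed ratio, PSI derived from sequencing read proportions per bin multiplied by bin number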
condition parameters: c terminus: a fixed tail appended
value type: protein stability index
Reply briefly: the number, and no unit.

IN: Return reported protein stability index; argument: `D6K`
OUT: 3.06

IN: Try this variant next: `Y3F`
OUT: 2.93

The record that follows has no protein stability index shown yet.
IN: # input variant: `G18N` ; wanted: its protein stability index
OUT: 2.92
